# System: MOLT-4 leukemia
# TEST_SUMMARY: NCI tumour cell line growth inhibition, 48 h; in the data active = GI50 below about 0.43 µM; inactive = the rest
Pick one and only one: yes (active), no (inactive)

COMPOUND	CLASS_ASSIGNMENT
c1ccc2c(CNCCN3CCNCC3)c3ccccc3c(CNCCN3CCNCC3)c2c1	no
[Cl][Cu][Cl]	no
CC(=O)N(O)c1ccc(/C=C/c2ccccc2)cc1	no

Now look at this entry.
Req: Called result for COc1ccc(-c2c3c(N)c4c(nc3nc3c2c(C)nn3-c2ccccc2)CCCC4)cc1
Resp: no

----------
# Test system: HCC-2998 colon
# TEST_SUMMARY: NCI tumour cell line growth inhibition, 48 h
READOUT_NAME: TGI

These recorded examples may help you get a feel for the data.
COMPOUND	TESTED_SYSTEM	TGI
O=C1C=C(C2=C(C3=CC(=O)c4ccccc4C3=O)C(=O)c3ccccc3C2=O)C(=O)c2ccccc21	HCC-2998 colon	43.1 µM
C=C1C2CCC3(CCC4C5(C)CCCC4(C=[N+](CCO)C5)C3C2)C1O (stereo unspecified)	HCC-2998 colon	> 100 µM
Cc1ccc(NC(=O)/C(C#N)=C/c2ccccc2)c(C)c1	HCC-2998 colon	> 100 µM

Req: Could you tell me which TGI is on file for O=c1n(-c2ccccc2)c(=O)n2c(-c3ccccc3)c(-c3ccccc3)n12 ?
Resp: > 100 µM

Req: Repeat with OC1COC(OCc2ccccc2)C(O)C1O (stereo unspecified)
Resp: > 100 µM

----------
# Test system: DU-145 prostate
# TEST_SUMMARY: NCI tumour cell line growth inhibition, 48 h
READOUT_NAME: TGI

Example cases with answers are listed next.
COMPOUND	TESTED_SYSTEM	TGI
O=C(O)CCCc1ccccc1	DU-145 prostate	> 1000 µM
CSc1c(C#N)c(S)n(-c2ccc(Cl)cc2)c(=O)c1C#N	DU-145 prostate	> 100 µM

Req: Kindly state the measured TGI obtained for Cc1ccc(-n2c(-c3cc4c([nH]c5ccccc54)c(-c4cccc(O)c4)n3)n[nH]c2=S)cc1 with DU-145 prostate.
Resp: 6.17 µM

Req: Try this compound too: CCOC(=O)C(Cc1ccc(N(CCCl)CCCl)cc1)NC(=O)C(Cc1ccccc1)NC(C)=O (stereo not drawn)
Resp: > 1 µM

----------
# System: SW-620 colon
# TEST_SUMMARY: NCI tumour cell line growth inhibition, 48 h
Some molecules, each annotated with its measured TGI.
Return type: number; implicit unit µM.

Examples from the recorded data:
MOLECULE	READING_UNIT	TGI
COC1=C2CC(C)CC(OC)C(OC(=O)CCCN)C(C)/C=C(\C)C(OC(N)=O)C(OC)/C=C\C=C(/C)C(=O)NC(=CC1=O)C2=O (centres undefined)	µM	17.7
C=CC[N+]1(CC)CCN=C1CCCCCCCCCCCCCCCCC (centres undefined)	µM	1.71

Req: Quick one: TGI of COc1c(CC=C(C)C)c(O)c(C(CC(C)C)c2c(O)c(CC=C(C)C)c(O)c(C(C)=O)c2O)c(O)c1C(C)=O (centres undefined) ?
Resp: 5.8

----------
Quick reference for TGI among some molecules
# System: SF-268 CNS
# TEST_SUMMARY: NCI tumour cell line growth inhibition, 48 h

Req: // returns reported TGI for input COc1c(CC=C(C)C)c(O)c(C(CC(C)C)c2c(O)c(CC=C(C)C)c(O)c(C(C)=O)c2O)c(O)c1C(C)=O (stereo not given)
Resp: 8.12 µM

Req: And for COC(=O)CCC(NC(=S)N/N=C(\C)c1cnccn1)C(=O)OC (stereo not given) ?
Resp: > 100 µM

Req: And the next one, C=C1C=CC2(Br)OC3CC(C)(Cl)C(Br)CC13C2(C)C (stereo not given) ?
Resp: > 100 µM

Req: Now consider NCc1ccc(-c2nc(-c3ccc(Cl)c(O)c3)c(-c3ccncc3)[nH]2)cc1 and answer again.
Resp: > 25 µM

Req: Field entry: CC(C)N(C(=O)C12C3C4C1C1C2C3C41C(=O)N(C(C)C)C(C)C)C(C)C (stereo not given)
Resp: > 50 µM
